Experiment: Solubility in Acetate Buffer at pH 3
Format: physicochemical
Conditions: aqueous buffer; Acetate Buffer at pH 3; read-out: Sol (ug/mL) at pH3
measured-quantity: solubility (µg/mL)
Respond numerically; units are µg/mL and should not be typed.

O=C(Nc1ccc(OC(F)(F)F)c(F)c1)NC1CCN(C(=O)C2CCOCC2)CC1 [Compound 29]    206

Okay, now this molecule:
**Q:** Return reported solubility; argument: O=C(Nc1ccc(OC(F)(F)F)c(F)c1)NC1CCN(C(=O)C2CCCOC2)CC1 (centres unmarked) [Compound 27]
**A:** 522
